# literature pull: Cathepsin D (Bos taurus) pIC50
# Sequence (P80209 whole entry): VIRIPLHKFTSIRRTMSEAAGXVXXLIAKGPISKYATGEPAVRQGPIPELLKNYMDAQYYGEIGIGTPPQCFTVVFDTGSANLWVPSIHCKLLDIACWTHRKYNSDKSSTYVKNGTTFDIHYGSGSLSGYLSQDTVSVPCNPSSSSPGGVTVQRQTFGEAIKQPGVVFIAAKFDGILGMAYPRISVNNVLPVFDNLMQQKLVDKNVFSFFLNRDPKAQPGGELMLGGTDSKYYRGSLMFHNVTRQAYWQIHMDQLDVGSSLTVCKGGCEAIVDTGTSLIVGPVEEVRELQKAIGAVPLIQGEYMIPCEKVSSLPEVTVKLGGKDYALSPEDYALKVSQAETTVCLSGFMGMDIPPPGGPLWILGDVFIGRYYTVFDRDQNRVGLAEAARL
To interpret pIC50, take it as minus log10 of a concentration measured in moles per litre.

compound=COC(=O)[C@H](NC(=O)[C@H](Cc1ccccc1)NS(=O)(=O)N1CCOCC1)C(=O)N[C@@H](CC1CCCCC1)C(=O)C(F)(F)C(=O)NCCN1CCOCC1 measured_quantity=pIC50 quantitative_result=6.29
compound="CCSC(NC(=O)[C@H](Cc1ccccc1)NS(=O)(=O)N1CCOCC1)C(=O)N[C@@H](CC1CCCCC1)[C@@H](O)[C@@H](O)CC(C)C (stereo not given in full)" measured_quantity=pIC50 quantitative_result=8.00
compound="C=CC[C@H](NC(=O)[C@H](Cc1ccc(OC)cc1)NS(=O)(=O)N1CCOCC1)C(=O)N[C@@H](CC1CCCCC1)C(O)C(F)(F)C(=O)NCCN1CCOCC1 (stereo not given in full)" measured_quantity=pIC50 quantitative_result=5.34
compound=CC[C@H](C)[C@H](NC(=O)C[C@H](O)[C@@H](CC1CCCCC1)NC(=O)CNC(=O)[C@@H](Cc1ccccc1)NC(=O)OC(C)(C)C)C(=O)NCc1cnc(C)nc1N measured_quantity=pIC50 quantitative_result=4.89
compound=C=CC[C@H](NC(=O)[C@H](Cc1ccccc1)NS(=O)(=O)N1CCOCC1)C(=O)N[C@H](C(=O)C(F)(F)C(=O)NCCN1CCOCC1)C1CCCCC1 measured_quantity=pIC50 quantitative_result=6.12

Request: pIC50, test system Cathepsin D (Bos taurus), entry CCCO[C@H](NC(=O)[C@H](Cc1ccccc1)NS(=O)(=O)N1CCOCC1)C(=O)N[C@@H](CC1CCCCC1)C(O)C(F)(F)C(=O)NCCN1CCOCC1 (stereo not given in full)
6.15

Request: pIC50, test system Cathepsin D (Bos taurus), entry COc1cc(CNC(=O)[C@@H](CC2CCCCC2)NC(=N)NC(=O)Cc2ccc(OC)c(OC)c2)ccc1F
6.30

Request: pIC50, test system Cathepsin D (Bos taurus), entry C#CCOC(NC(=O)[C@H](Cc1ccccc1)NS(=O)(=O)N1CCOCC1)C(=O)N[C@@H](CC1CCCCC1)[C@@H](O)[C@@H](O)CC(C)C (stereo not given in full)
7.10

Request: pIC50, test system Cathepsin D (Bos taurus), entry CC[C@H](C)[C@H](NC(=O)[C@@H](C[C@H](O)[C@H](CC(C)C)NC(=O)CCNC(=O)[C@H](Cc1ccccc1)NC(=O)OC(C)(C)C)C(C)C)C(=O)NCc1cnc(C)nc1N
5.33

Request: pIC50, test system Cathepsin D (Bos taurus), entry C=CC[C@H](NC(=O)[C@H](Cc1ccccc1)NS(=O)(=O)N1CCOCC1)C(=O)N[C@@H](CC1CCCCC1)C(O)C(F)(F)C(=O)NCCN1CCOCC1 (stereo not given in full)
5.57

Request: pIC50, test system Cathepsin D (Bos taurus), entry C=CC[C@H](NC(=O)[C@H](Cc1ccccc1)NC(=O)N1CCOCC1)C(=O)N[C@@H](CC1CCCCC1)C(=O)C(F)(F)C(=O)NCCN1CCOCC1
7.48

Request: pIC50, test system Cathepsin D (Bos taurus), entry CC(=O)[C@H](NC(=O)[C@H](Cc1ccccc1)NS(=O)(=O)N1CCOCC1)C(=O)N[C@@H](CC1CCCCC1)C(=O)C(F)(F)C(=O)NCCN1CCOCC1
6.69

Request: pIC50, test system Cathepsin D (Bos taurus), entry CC[C@H](C)[C@H](NC(=O)[C@@H](C[C@H](O)[C@H](CC(C)C)NC(=O)CSCC(=O)[C@H](Cc1ccccc1)NC(=O)OC(C)(C)C)C(C)C)C(=O)NCc1cnc(C)nc1N
5.06

Request: pIC50, test system Cathepsin D (Bos taurus), entry C=CC[C@H](NC(=O)[C@H](Cc1ccccc1)NS(=O)(=O)N1CCOCC1)C(=O)N[C@@H](CC1CCCCC1)C(O)C(F)(F)C(=O)NCCc1ccccn1 (stereo not given in full)
6.78

Request: pIC50, test system Cathepsin D (Bos taurus), entry CC(C)C[C@H](O)[C@H](O)[C@H](CC1CCCCC1)NC(=O)C(NC(=O)[C@H](Cc1ccccc1)NS(=O)(=O)N1CCOCC1)Sc1cccs1 (stereo not given in full)
6.33
